System: SARS-CoV-2刺突蛋白RBD区重组蛋白 (SARS-CoV-2, UniProt P0DTC2 319-541)
Method Notes: SPR, BIAcore T-200, RBD amine-coupled on CM5 chip, VHH in flow
Recorded kon values for a group of binders are listed next.
Only the number, expressed in M⁻¹ s⁻¹, is required.

Using the record for 单域抗体2F2 (VHH) VHH: QVQLVESGGGLVQPGGSLRLSCAASGLAQSKWAYGWFRQAPGKGLEAVAAIDVATGPWYYADSVKGRFTISRDNSKNTLYLQMNSLRAEDTAVYYCAAHHIPTKHPAFPDFRDYWGQGTQVTVSS , report its kon.
370000

Same again, this time with 单域抗体3F11 (VHH) VHH: QVQLVESGGGLVQPGGSLRLSCAASGGNAAERMAGWFRQAPGKGLEAVAAIYYAKFGPYYADSVKGRFTISRDNSKNTLYLQMNSLRAEDTAVYYCAAEAFVQSPYSGSHTTKYWGQGTQVTVSS
2.14e+06

Same again, this time with 单域抗体1E2 (VHH) VHH: QVQLVESGGGLVQPGGSLRLSCAASGADAFVIIGGWFRQAPGKGLEAVAAIAWTDQHEYYADSVKGRFTISRDNSKNTLYLQMNSLRAEDTAVYYCAAQDSAYIKSKGSRAYEYWGQGTQVTVSS
245000

Further cases:
Using the record for 单域抗体4D8 (VHH) VHH: QVQLVESGGGLVQPGGSLRLSCAASGNIDSTRYHGWFRQAPGKGLEAVAAIKGVWPEDYYADSVKGRFTISRDNSKNTLYLQMNSLRAEDTAVYYCAADQYEWWVPGEVGPYLYWGQGTQVTVSS , report its kon.
180000

Same again, this time with 单域抗体5F8 (VHH) VHH: QVQLVESGGGLVQPGGSLRLSCAASGRQAVVFGWFRQAPGKGLEAVAAIHVPAKNRYYADSVKGRFTISRDNSKNTLYLQMNSLRAEDTAVYYCAAHYEFNDFVWQGYSSDYWGQGTQVTVSS
295000
